Measured values drawn from PubChem BioAssay AID1963856 for this set.

# Test system: LG0567-F671-PDC KRAS tumor spheroid viability;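 note: drug exposure lasted seven days after spheroids formed for three days; 100% = DMSO vehicle control viability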
# test-protocol: Anticancer human tumor LG0567-F671-PDC patient-derived lung adenocarcinoma cell line growth inhibition [KRAS2]
# condition-notes: second compound 0.316 µM; first compound 0.001 µM; stronger effect = lower value; spheroids with HUVEC and MSC
readout-label: viability, T/C (%)
Answers are plain numbers, in %.

Sample records with viability, T/C:
compound: CC(C)n1nc(-c2ccc3oc(N)nc3c2)c2c(N)ncnc21 + CNCc1ccccc1-c1csc(C(C)Nc2nc(C)nc3cc(OC)c(OC)cc23)c1
measurement-units: %
viability, T/C: 65.5
//
compound: Cn1ncnc1[C@H]1c2n[nH]c(=O)c3cc(F)cc(c23)N[C@@H]1c1ccc(F)cc1 + CC1OCC2(CCN(c3cnc(Sc4ccnc(N)c4Cl)c(N)n3)CC2)C1N
measurement-units: %
viability, T/C: 34.5
//
compound: CN(C)C/C=C/C(=O)Nc1cc2c(Nc3ccc(F)c(Cl)c3)ncnc2cc1O[C@H]1CCOC1 + C=CC(=O)N1CCN(c2nc(=O)n(-c3c(C)ccnc3C(C)C)c3nc(-c4c(O)cccc4F)c(F)cc23)C(C)C1
measurement-units: %
viability, T/C: 28.2
//
compound: CN(C)C/C=C/C(=O)Nc1cc2c(Nc3ccc(F)c(Cl)c3)ncnc2cc1O[C@H]1CCOC1 + CNCc1ccccc1-c1csc(C(C)Nc2nc(C)nc3cc(OC)c(OC)cc23)c1
measurement-units: %
viability, T/C: 72.8
//
compound: Cn1ncnc1[C@H]1c2n[nH]c(=O)c3cc(F)cc(c23)N[C@@H]1c1ccc(F)cc1 + CNCc1ccccc1-c1csc(C(C)Nc2nc(C)nc3cc(OC)c(OC)cc23)c1
measurement-units: %
viability, T/C: 64.9

Field: viability, T/C. Fill in for each record below.
1. CC(C)n1nc(-c2ccc3oc(N)nc3c2)c2c(N)ncnc21 + CC1OCC2(CCN(c3cnc(Sc4ccnc(N)c4Cl)c(N)n3)CC2)C1N
2. CC(=O)Nc1cccc(-n2c(=O)n(C3CC3)c(=O)c3c(Nc4ccc(I)cc4F)n(C)c(=O)c(C)c32)c1 + CNCc1ccccc1-c1csc(C(C)Nc2nc(C)nc3cc(OC)c(OC)cc23)c1

29
47.8

Please report viability, T/C for every entry that follows.
1. CC(C)n1nc(-c2ccc3oc(N)nc3c2)c2c(N)ncnc21 + C=CC(=O)N1CCN(c2nc(=O)n(-c3c(C)ccnc3C(C)C)c3nc(-c4c(O)cccc4F)c(F)cc23)C(C)C1
2. CC(C)n1nc(-c2ccc3oc(N)nc3c2)c2c(N)ncnc21 + C=CC(=O)N1CCN(c2nc(OCC3CCCN3C)nc3c2CCN(c2cccc4cccc(C)c24)C3)CC1CC#N
3. CC(=O)Nc1cccc(-n2c(=O)n(C3CC3)c(=O)c3c(Nc4ccc(I)cc4F)n(C)c(=O)c(C)c32)c1 + C=CC(=O)N1CCN(c2nc(=O)n(-c3c(C)ccnc3C(C)C)c3nc(-c4c(O)cccc4F)c(F)cc23)C(C)C1
4. CC(=O)Nc1cccc(-n2c(=O)n(C3CC3)c(=O)c3c(Nc4ccc(I)cc4F)n(C)c(=O)c(C)c32)c1 + C=CC(=O)N1CCN(c2nc(OCC3CCCN3C)nc3c2CCN(c2cccc4cccc(C)c24)C3)CC1CC#N

[20, 33.5, 28.9, 39.7]
